# target-system: Avi-KRAS G12D (1-169) GppNHp/RAF1 RBD-3×FLAG (52-151) (Homo sapiens, UniProt P01116, G12D)
# Construct: Avi-KRAS G12D (1-169) GppNHp
# Sequence (P01116 1-169 isoform P01116-2 G12D limits assumed): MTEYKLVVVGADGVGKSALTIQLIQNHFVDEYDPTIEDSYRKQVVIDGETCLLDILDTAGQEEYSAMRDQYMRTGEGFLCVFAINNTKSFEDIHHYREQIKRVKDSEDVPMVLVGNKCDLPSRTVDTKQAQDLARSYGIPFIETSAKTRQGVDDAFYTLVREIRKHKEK
# protocol: HTRF Raf1-KRAS G12D-GppNHp disruption assay
# measurement-conditions: 1 h incubation

compound	IC50
CN1CCC[C@H]1COc1nc(NC2CCNC2)c2cc(Cl)c(-c3ccc(F)c4sc(N)nc34)c(F)c2n1 (stereo partly drawn) [Compound 98]	1 to 10 µM
NCC(=O)N1CCN(c2nc(OC[C@@H]3CCCN3CC(F)F)nc3c(F)c(-c4ccc(F)c5sc(N)nc45)c(C(F)(F)F)cc23)CC1 [Compound 193]	10 to 30 µM
CN1CCC[C@H]1COc1nc(NCCN)c2cc(Cl)c(-c3cccc4cc(O)ccc34)c(F)c2n1 [Compound 74]	10 to 30 µM
CN(c1nc(OCC23CCCN2CCC3)nc2c(F)c(-c3ccc(F)c4sc(N)nc34)c(C(F)(F)F)cc12)[C@H]1C[C@@H](N)C1 (atropisomer, axis not shown) [Compound 250]	0.1 to 1 µM
CC(C)N1C2CCC1CN(c1nc(OC[C@@]34CCCN3C[C@H](F)C4)nc3c(F)c(-c4ccc(F)c5sc(N)nc45)c(C(F)(F)F)cc13)C2 [Compound 316]	1 to 10 µM
CN(c1nc(OCC23CCCN2CCC3)nc2c(F)c(-c3ccc(F)c4sc(N)nc34)c(C(F)(F)F)cc12)[C@H]1C[C@H]2CC[C@@H]1N2 (atropisomer, axis not shown) [Compound 271]	0.1 to 1 µM

###

# System: pERK in GP2d cells (KRAS G12D)
# protocol: Cell-based pERK HTRF assay
# measurement-conditions: GP2d, 1 h, 60 min incubation
measured-parameter: IC50

> print(dat)
                           structure.smiles  observed.measurement
1  C[C@@H]1C[C@@H](N(C)c2nc(OC[C@@]34CCCN3C[C@H](F)C4)nc3c(F)c(-c4ccc(F)c5sc(N)nc45)c(C(F)(F)F)cc23)CN1        100 to 1000 nM
2  Fc1c(-c2cc(C(F)F)cc3ccccc23)c(C(F)(F)F)cc2c(N3CC4CCC(C3)N4)nc(OCC34CCCN3CCC4)nc12             > 1000 nM
3  CN(c1nc(OCC23CCCN2CCC3)nc2c(F)c(-c3ccc(F)c4sc(N)nc34)c(C(F)(F)F)cc12)C12CC(N)(C1)C2        100 to 1000 nM

###

# Test system: pERK in GP2d cells (KRAS G12D)
# protocol: Cell-based pERK HTRF assay
# measurement-conditions: GP2d, 1 h, 60 min incubation
Recorded measurements of IC50, one per entry

compound	IC50
Nc1nc2c(-c3c(C(F)(F)F)cc4c(NC5CC6CC[C@H](C5)N6)nc(OCC56CCCN5CCC6)nc4c3F)ccc(F)c2s1 (stereo partly drawn) [Compound 264]	> 1000 nM
N#Cc1c(N)sc2c(F)ccc(-c3c(C(F)(F)F)cc4c(N5CC6CCC(C5)N6)nc(OC[C@@]56CCCN5C[C@H](F)C6)nc4c3F)c12 (single isomer, unassigned) [Compound 366]	≤ 100 nM
CN(c1nc(OC[C@@]23CCCN2C[C@H](F)C3)nc2c(F)c(-c3ccc(F)c4sc(N)nc34)c(C(F)(F)F)cc12)[C@H]1CNCC1(C)C [Compound 325]	> 1000 nM

###

# target-system: GppNHp KRAS G12D (Homo sapiens, UniProt P01116, G12D)
# Sequence (P01116 1-188 isoform P01116-2 G12D): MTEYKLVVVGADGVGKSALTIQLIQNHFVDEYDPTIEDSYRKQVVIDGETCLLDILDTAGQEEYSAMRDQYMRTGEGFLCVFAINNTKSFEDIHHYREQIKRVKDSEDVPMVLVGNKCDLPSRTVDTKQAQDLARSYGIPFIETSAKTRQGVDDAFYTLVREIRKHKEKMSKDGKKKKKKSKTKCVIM
# protocol: SPR binding affinity, GppNHp KRAS G12D
# measurement-conditions: GppNHp-bound KRAS G12D
Recorded measurements of Kd, one per entry
measured-parameter: Kd

> print(dat)
                                   compound  observed.measurement
1  Nc1nc2c(-c3c(C(F)(F)F)cc4c(N5CC6CCC(C5)N6)nc(OC[C@@]56CCCN5C[C@H](F)C6)nc4c3F)ccc(F)c2s1 [Compound 219]              ≤ 0.1 µM
2  Nc1nc2c(-c3c(C(F)(F)F)cc4c(N5CC6CCC(C5)N6)nc(OCC56CCCN5CCC6)nc4c3F)ccc(F)c2s1 [Compound 158]              ≤ 0.1 µM
3  CN1CCC[C@H]1COc1nc(NC2CNC2)c2cc(Cl)c(-c3ccc(F)c4sc(N)nc34)c(F)c2n1 [Compound 55]            1 to 10 µM
4  CN1CCC[C@H]1COc1nc(NCCN)c2cc(Cl)c(-c3ccc(F)c4sc(N)nc34)c(F)c2n1 [Compound 49]            1 to 10 µM
5  Nc1nc2c(-c3c(Cl)cc4c(N5CC6CCC(C5)N6)nc(OCC56CCCN5CCC6)nc4c3F)ccc(F)c2s1 [Compound 157]              ≤ 0.1 µM
6  CO[C@@H]1CN(C)C[C@H]1Oc1nc(NCCN)c2cc(Cl)c(-c3ccc(F)c4sc(N)nc34)c(F)c2n1 [Compound 60]           10 to 30 µM
7  Cc1ccc2[nH]ncc2c1-c1c(Cl)cc2c(NCCN)nc(OC[C@@H]3CCCN3C)nc2c1F [Compound 62]           10 to 30 µM

###

# System: pERK in GP2d cells (KRAS G12D)
# protocol: Cell-based pERK HTRF assay
# measurement-conditions: GP2d, 1 h, 60 min incubation

molecule	IC50
C[C@@H]1CN(c2nc(OC[C@@]34CCCN3C[C@H](F)C4)nc3c(F)c(-c4ccc(F)c5sc(N)nc45)c(C(F)(F)F)cc23)[C@@H](C)CN1 [Compound 207]	≤ 100 nM
N#Cc1c(N)sc2c(F)ccc(-c3c(C(F)(F)F)cc4c(N5CC6CCC(C5)N6)nc(OCC5(CN6CCOCC6)CC5)nc4c3F)c12 [Compound 337]	≤ 100 nM
CN1CCC(Oc2nc(N3CC4CCC(C3)N4)c3cc(C(F)(F)F)c(-c4ccc(F)c5sc(N)nc45)c(F)c3n2)CC1 [Compound 340]	100 to 1000 nM
CN(c1nc(OC[C@@]23CCCN2C[C@H](F)C3)nc2c(F)c(-c3ccc(F)c4sc(N)c(C#N)c34)c(Cl)cc12)[C@@H]1CCNC1 [Compound 379]	≤ 100 nM
CN(c1nc(OC[C@@]23CCCN2C[C@H](F)C3)nc2cc(-c3ccc(F)c4sc(N)c(C#N)c34)c(C(F)(F)F)cc12)[C@H]1CNC[C@H]1F [Compound 347]	≤ 100 nM
CN(c1nc(OC[C@@]23CCCN2C[C@H](F)C3)nc2c(F)c(-c3ccc(F)c4sc(N)c(C#N)c34)ccc12)[C@@H]1CCNC1 [Compound 344]	100 to 1000 nM
CN(c1nc(OC[C@@]23CCCN2C[C@H](F)C3)nc2c(F)c(-c3ccc(F)c4sc(N)nc34)c(C(F)(F)F)cc12)[C@H]1CNC[C@H]1F [Compound 290]	≤ 100 nM
C[C@H]1CNC[C@@H]1N(C)c1nc(OC[C@@]23CCCN2C[C@H](F)C3)nc2c(F)c(-c3ccc(F)c4sc(N)nc34)c(C(F)(F)F)cc12 [Compound 309]	100 to 1000 nM
Nc1nc2c(-c3c(C(F)(F)F)cc4c(N5CC6CCC5CN6)nc(OC[C@@]56CCCN5C[C@H](F)C6)nc4c3F)ccc(F)c2s1 (some centres unmarked) [Compound 223]	≤ 100 nM
C[C@@H]1C[C@@H](N(C)c2nc(OC[C@@]34CCCN3C[C@H](F)C4)nc3c(F)c(-c4ccc(F)c5sc(N)c(C#N)c45)ccc23)CN1 [Compound 357]	100 to 1000 nM
N#Cc1c(N)sc2c(F)ccc(-c3c(C(F)(F)F)cc4c(N5CC[C@@H]6CNCC[C@@H]65)nc(OC[C@@]56CCCN5C[C@H](F)C6)nc4c3F)c12 [Compound 376]	≤ 100 nM
NC(=O)N1CC(Nc2nc(OCC34CCCN3CCC4)nc3c(F)c(-c4ccc(F)c5sc(N)nc45)c(C(F)(F)F)cc23)C1 [Compound 188]	> 1000 nM
CO[C@H]1CN2CCC[C@@]2(COc2nc(N3CC4CCC(C3)N4)c3cc(C(F)(F)F)c(-c4ccc(F)c5sc(N)nc45)c(F)c3n2)C1 [Compound 261]	≤ 100 nM
CN(c1nc(OC[C@@]23CCCN2C[C@H](F)C3)nc2c(F)c(-c3ccc(F)c4sc(N)nc34)c(C(F)(F)F)cc12)[C@@H]1CNCC1(C)C [Compound 293]	100 to 1000 nM
Nc1nc2c(-c3c(C(F)(F)F)cc4c(NC5CNC5)nc(OCC56CCCN5CCC6)nc4c3F)ccc(F)c2o1 [Compound 199]	> 1000 nM
CN(c1nc(OCC23CCCN2CCC3)nc2c(F)c(-c3ccc(F)c4sc(N)nc34)c(C(F)(F)F)cc12)[C@@H]1CCNC1 (single isomer, unassigned) [Compound 236]	> 1000 nM
Nc1nc2c(-c3c(C(F)(F)F)cc4c(N[C@H]5CCC[C@H](N)C5)nc(OCC56CCCN5CCC6)nc4c3F)ccc(F)c2s1 [Compound 328]	> 1000 nM
N#Cc1c(N)sc2c(F)ccc(-c3cc4nc(OC[C@@]56CCCN5C[C@H](F)C6)nc(N5CC6CCC(C5)N6)c4cc3C(F)(F)F)c12 [Compound 323]	≤ 100 nM
Nc1nc2c(-c3c(C(F)(F)F)cc4c(N5CC6COCC(C5)N6)nc(OC[C@@]56CCCN5C[C@H](F)C6)nc4c3F)ccc(F)c2s1 [Compound 300]	100 to 1000 nM
Nc1nc2c(-c3c(C(F)(F)F)cc4c(N5C[C@H]6CC[C@@H](C5)N6)nc(OC[C@@]56CCCN5C[C@H](F)C6)nc4c3O)ccc(F)c2s1 [Compound 343]	> 1000 nM
NCC(=O)N1CC(Nc2nc(OCC34CCCN3CCC4)nc3c(F)c(-c4ccc(F)c5sc(N)nc45)c(C(F)(F)F)cc23)C1 [Compound 187]	> 1000 nM
Nc1nc2c(-c3c(C(F)(F)F)cc4c(N5CC6CCC(C5)N6)nc(OC[C@@]56CCCN5C[C@H](F)C6)nc4c3F)ccc(F)c2s1 (single isomer, unassigned) [Compound 245]	≤ 100 nM
N#Cc1c(N)sc2c(F)ccc(-c3c(C(F)(F)F)cc4c(N5C[C@H]6CC[C@@H](C5)N6)nc(OC[C@@]56CCCN5C[C@H](F)C6)nc4c3F)c12 [Compound 255]	≤ 100 nM
